- STUDY SYSTEM: recombinant N-terminal MLH1 (residues 15-340) (Homo sapiens)
- Construct: recombinant N-terminal MLH1 (residues 15-340)
- Sequence (P40692 15-340): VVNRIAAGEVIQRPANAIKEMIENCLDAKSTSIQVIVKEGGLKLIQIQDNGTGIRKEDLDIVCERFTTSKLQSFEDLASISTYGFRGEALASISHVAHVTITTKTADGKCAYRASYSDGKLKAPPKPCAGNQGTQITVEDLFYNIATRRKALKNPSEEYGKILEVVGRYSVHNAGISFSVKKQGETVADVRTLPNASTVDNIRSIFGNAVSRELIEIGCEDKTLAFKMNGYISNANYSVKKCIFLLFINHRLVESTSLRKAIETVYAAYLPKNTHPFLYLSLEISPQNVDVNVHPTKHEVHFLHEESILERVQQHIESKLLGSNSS
- EXPERIMENT: Fluorescence Polarisation Assay for MLH1
- PARTICULARS: 100 nM N-terminal MLH1, 5 nM probe compound
pIC50: −log10 of the molar value.
# pIC50 per record follows

MOLECULE: O=C(c1c(O)cc(C(F)F)cc1OCc1ccccc1)N1CCCc2cc(NC3CCOC3)ccc21 (stereo not shown) [Example 27.19]
pIC50: 5.00 to 6.00

MOLECULE: Cn1cncc1-c1cc2c(c(N[C@H]3CCOC3)c1)CN(C(=O)c1c(O)cc(C(F)F)cc1OCc1ccccc1)CC2 [Example 4.26]
pIC50: 6.00 to 7.00

MOLECULE: CN(C)Cc1ccc2c(c1)CN(C(=O)c1c(O)cc(C(F)F)cc1OCc1ccccc1)CC2 [Example 4.42]
pIC50: 6.00 to 7.00

MOLECULE: COc1cc(O)c(C(=O)N2Cc3cccc(N[C@H]4CCOC4)c3C2)c(OCc2ccccc2)c1 [Example 1]
pIC50: 6.00 to 7.00

MOLECULE: CC(=O)N1CC[C@H](Nc2cccc3c2CN(C(=O)c2c(O)cc(C#N)cc2OCc2ccccc2)C3)C1 [Example 10.6]
pIC50: 6.00 to 7.00

MOLECULE: Cn1ncc2ccc(COc3cc(C(F)F)cc(O)c3C(=O)N3CCc4cccc(N[C@H]5CCOC5)c4C3)cc21 [Example 28]
pIC50: > 7.00

MOLECULE: CN(C)Cc1ccc2c(c1)CCN(C(=O)c1c(O)cc(C(F)F)cc1OCc1ccccc1)C2 [Example 4.43]
pIC50: 6.00 to 7.00
